Reference for the values: paper PMC10327518

Each entry below carries its recorded SI.
Molecular target: eqBuChE (equine serum BuChE) (Equus caballus, UniProt P81908)
Construct: purchased Sigma-Aldrich Co; host or cells: equine serum (natural source)
Sequence (P81908 whole entry): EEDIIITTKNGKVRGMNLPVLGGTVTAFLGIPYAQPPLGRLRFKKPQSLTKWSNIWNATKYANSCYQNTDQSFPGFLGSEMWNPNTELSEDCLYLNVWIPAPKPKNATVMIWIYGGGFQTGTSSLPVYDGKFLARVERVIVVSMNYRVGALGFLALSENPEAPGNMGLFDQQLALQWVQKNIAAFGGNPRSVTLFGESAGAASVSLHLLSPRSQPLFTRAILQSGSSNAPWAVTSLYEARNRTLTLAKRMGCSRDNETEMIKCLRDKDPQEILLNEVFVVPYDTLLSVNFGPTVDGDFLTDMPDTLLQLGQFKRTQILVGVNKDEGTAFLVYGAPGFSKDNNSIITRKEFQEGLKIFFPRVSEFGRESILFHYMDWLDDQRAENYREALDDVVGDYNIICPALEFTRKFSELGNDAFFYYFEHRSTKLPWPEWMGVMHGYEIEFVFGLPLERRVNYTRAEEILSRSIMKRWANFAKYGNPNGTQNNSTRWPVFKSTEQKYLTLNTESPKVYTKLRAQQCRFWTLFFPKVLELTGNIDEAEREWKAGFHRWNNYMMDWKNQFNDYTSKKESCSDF
Experiment: biochemical
Conditions: SI = IC50 (AChE)/IC50 (BuChE)

input smiles | SI
O=C(Oc1ccc(C(=O)N2CCC(Cc3ccccc3)CC2)c(OC(=O)N2CCOCC2)c1)N1CCOCC1 | 1.4
CCN(C)C(=O)Oc1ccc(OC(=O)N(C)CC)c(C(=O)N2CCC(Cc3ccccc3)CC2)c1 | 0.36
CN(C)C(=O)Oc1ccc(C(=O)N2CCC(Cc3ccccc3)CC2)c(OC(=O)N(C)C)c1 | 14.7
CC(C)N(C(=O)Oc1ccc(OC(=O)N(C(C)C)C(C)C)c(C(=O)N2CCC(Cc3ccccc3)CC2)c1)C(C)C | 0.49
CN(C)C(=O)Oc1ccc(OC(=O)N(C)C)c(C(=O)N2CCC(Cc3ccccc3)CC2)c1 | 0.32
CCN(C)C(=O)Oc1ccc(C(=O)N2CCC(Cc3ccccc3)CC2)c(OC(=O)N(C)CC)c1 | 2.4
CC(C)N(C(=O)Oc1ccc(C(=O)N2CCC(Cc3ccccc3)CC2)c(OC(=O)N(C(C)C)C(C)C)c1)C(C)C | 0.66
O=C(Oc1ccc(C(=O)N2CCC(Cc3ccccc3)CC2)c(OC(=O)N2CCCC2)c1)N1CCCC1 | 2.6
